- System: Micrococcus luteus (Mb 1101, ATCC 9341)
- TEST_SUMMARY: Agar diffusion disc assay, Micr 1101
- Type: cell-based
- CONDITIONS: Micrococcus luteus, ATCC9341; 2.50 μg/disc; 25° C., ~18 hours; read-out: Mean of triplicate zone size versus Micrococcus luteus
QUANTITY_NAME: zone of inhibition at 2.5 µg/disc (mm)
Numbers only, in mm.

Record excerpt, results attached:
COMPOUND | zone of inhibition at 2.5 µg/disc (mm)
CNC(=O)O[C@@H]1/C=C(C)/C=C/CNC(=O)/C=C/[C@@H](C)[C@@H](C(C)C)OC(=O)C2=CCCN2C(=O)c2coc(n2)CC(=O)C1 [Example 7] | 13
CC1=C\[C@@H](OC(=O)Nc2ccccc2)CC(=O)Cc2nc(co2)C(=O)N2CCC=C2C(=O)O[C@H](C(C)C)[C@H](C)/C=C/C(=O)NC\C=C\1 [Example 11] | 10

q: zone of inhibition at 2.5 µg/disc lookup needed for CC(=O)O[C@@H]1/C=C(C)/C=C/CNC(=O)/C=C/[C@@H](C)[C@@H](C(C)C)OC(=O)C2=CCCN2C(=O)c2coc(n2)CC(=O)C1 [Example 2] , thanks.
a: 7
